Values were extracted from patent US20180346505A1.

System: GT1a (H77) HCV replicon
Experiment: HCV replicon assay, wild type GT1a (H77), luciferase based, stable format
Type: cell-based, hepatitis C virus
Details: Hepatitis C virus, GT1A, Huh-7, 72 h, Huh-7 cells
pEC50: −log10 of the molar value.
# Lookup of reported pEC50 keyed by entry

[
  {
    "compound": "CC(C)OC(=O)[C@H](C)N[P@](=O)(OC[C@H]1O[C@@H](n2ccc(=O)[nH]c2=O)[C@](C)(F)[C@@H]1O)Oc1ccccc1 [sofosbuvir, reference compound]",
    "measurementTarget": "GT1a (H77) HCV replicon",
    "pEC50": "7.21 to 7.40"
  },
  {
    "compound": "CC(C)(C)SSc1ccccc1CCOP1(=O)OC[C@H]2O[C@@H](n3ccc(=O)[nH]c3=O)[C@](C)(F)[C@@H]2O1 (single isomer, unassigned) [Compound 7A]",
    "measurementTarget": "GT1a (H77) HCV replicon",
    "pEC50": "8.10 to 8.30"
  },
  {
    "compound": "CC(C)(C)SSc1ccccc1CCOP1(=O)OC[C@H]2O[C@@H](n3ccc(N)nc3=O)[C@](C)(F)[C@@H]2O1 (single isomer, unassigned) [Compound 9A]",
    "measurementTarget": "GT1a (H77) HCV replicon",
    "pEC50": "8.22 to 8.52"
  }
]

* * *

Experiment: Nucleoside phosphoester stability in simulated gastric fluid
Type: in vitro ADME
Conditions: simulated gastric fluid pH 1.2, 2 μM, 37° C., 120 min
Description: Test compounds at 2 μM were incubated at 37° C. with simulated gastric fluid (SGF, 0.2% (w/v) sodium chloride in 0.7% (v/v) hydrochloric acid, deionized water, 0.3% pepsin (w/v), pH 1.2). Duplicate samples were used. […] Samples were analyzed by LC/MS/MS method, and disappearance of test compound was assessed by comparison of peak area ratios of analyte/IS and reported as % test compound remaining at each time point.
Listed below: % Remaining values for each entry.

[
  {
    "compound": "CC(C)(C)SSc1ccccc1CCOP1(=O)OC[C@H]2O[C@@H](n3ccc(N)nc3=O)[C@](C)(F)[C@@H]2O1 (single isomer, unassigned) [Compound 9A]",
    "% Remaining (%)": 94.89
  },
  {
    "compound": "COc1ccc2[nH]c([S+]([O-])Cc3ncc(C)c(OC)c3C)nc2c1 (centres unmarked) [Omeprazole, reference compound]",
    "% Remaining (%)": 33.00
  },
  {
    "compound": "CC(C)(C)SSc1ccccc1CCOP1(=O)OC[C@H]2O[C@@H](n3ccc(=O)[nH]c3=O)[C@](C)(F)[C@@H]2O1 (single isomer, unassigned)",
    "% Remaining (%)": 91.52
  },
  {
    "compound": "CC(C)OC(=O)[C@H](C)N[P@](=O)(OC[C@H]1O[C@@H](n2ccc(=O)[nH]c2=O)[C@](C)(F)[C@@H]1O)Oc1ccccc1 [sofosbuvir, reference compound]",
    "% Remaining (%)": 95.33
  },
  {
    "compound": "CC(C)(C)SSc1ccccc1CCOP1(=O)OC[C@H]2O[C@@H](n3ccc(N)nc3=O)[C@](C)(F)[C@@H]2O1 (single isomer, unassigned) [Compound 9B]",
    "% Remaining (%)": 92.48
  }
]

* * *

Assay: Nucleoside phosphoester stability in simulated gastric fluid
Assay type: in vitro ADME
Details: simulated gastric fluid pH 1.2, 2 μM, 37° C., 30 min
# reported % Remaining; entries follow
quantityName: % Remaining (%)

[
  {
    "molecule": "CC(C)(C)SSc1ccccc1CCOP1(=O)OC[C@H]2O[C@@H](n3ccc(=O)[nH]c3=O)[C@](C)(F)[C@@H]2O1 (single isomer, unassigned) [Compound 7A]",
    "quantityName": "% Remaining",
    "unitSpec": "%",
    "reportedResult": 99.01
  },
  {
    "molecule": "CC(C)OC(=O)[C@H](C)N[P@](=O)(OC[C@H]1O[C@@H](n2ccc(=O)[nH]c2=O)[C@](C)(F)[C@@H]1O)Oc1ccccc1 [sofosbuvir, reference compound]",
    "quantityName": "% Remaining",
    "unitSpec": "%",
    "reportedResult": 99.50
  },
  {
    "molecule": "COc1ccc2[nH]c([S+]([O-])Cc3ncc(C)c(OC)c3C)nc2c1 (centres unmarked) [Omeprazole, reference compound]",
    "quantityName": "% Remaining",
    "unitSpec": "%",
    "reportedResult": 66.64
  },
  {
    "molecule": "CC(C)(C)SSc1ccccc1CCOP1(=O)OC[C@H]2O[C@@H](n3ccc(N)nc3=O)[C@](C)(F)[C@@H]2O1 (single isomer, unassigned) [Compound 9A]",
    "quantityName": "% Remaining",
    "unitSpec": "%",
    "reportedResult": 102.51
  },
  {
    "molecule": "CC(C)(C)SSc1ccccc1CCOP1(=O)OC[C@H]2O[C@@H](n3ccc(N)nc3=O)[C@](C)(F)[C@@H]2O1 (single isomer, unassigned) [Compound 9B]",
    "quantityName": "% Remaining",
    "unitSpec": "%",
    "reportedResult": 98.51
  }
]

* * *

Assay: Nucleoside phosphoester stability in simulated gastric fluid
Format: in vitro ADME
Conditions: simulated gastric fluid pH 1.2, 2 μM, 37° C., 15 min
Experimental: Test compounds at 2 μM were incubated at 37° C. with simulated gastric fluid (SGF, 0.2% (w/v) sodium chloride in 0.7% (v/v) hydrochloric acid, deionized water, 0.3% pepsin (w/v), pH 1.2). Duplicate samples were used. […] Samples were analyzed by LC/MS/MS method, and disappearance of test compound was assessed by comparison of peak area ratios of analyte/IS and reported as % test compound remaining at each time point.

[
  {
    "compound": "CC(C)OC(=O)[C@H](C)N[P@](=O)(OC[C@H]1O[C@@H](n2ccc(=O)[nH]c2=O)[C@](C)(F)[C@@H]1O)Oc1ccccc1 [sofosbuvir, reference compound]",
    "% Remaining": "93.47%"
  },
  {
    "compound": "CC(C)(C)SSc1ccccc1CCOP1(=O)OC[C@H]2O[C@@H](n3ccc(N)nc3=O)[C@](C)(F)[C@@H]2O1 (single isomer, unassigned) [Compound 9A]",
    "% Remaining": "107.89%"
  },
  {
    "compound": "CC(C)(C)SSc1ccccc1CCOP1(=O)OC[C@H]2O[C@@H](n3ccc(=O)[nH]c3=O)[C@](C)(F)[C@@H]2O1 (single isomer, unassigned)",
    "% Remaining": "95.13%"
  },
  {
    "compound": "CC(C)(C)SSc1ccccc1CCOP1(=O)OC[C@H]2O[C@@H](n3ccc(N)nc3=O)[C@](C)(F)[C@@H]2O1 (single isomer, unassigned) [Compound 9B]",
    "% Remaining": "95.72%"
  },
  {
    "compound": "COc1ccc2[nH]c([S+]([O-])Cc3ncc(C)c(OC)c3C)nc2c1 (centres unmarked) [Omeprazole, reference compound]",
    "% Remaining": "79.48%"
  }
]

* * *

Item-by-item account of % Remaining
Experiment: Nucleoside phosphoester stability in simulated gastric fluid
Assay type: in vitro ADME
Details: simulated gastric fluid pH 1.2, 2 μM, 37° C., 60 min

[
  {
    "compound": "CC(C)OC(=O)[C@H](C)N[P@](=O)(OC[C@H]1O[C@@H](n2ccc(=O)[nH]c2=O)[C@](C)(F)[C@@H]1O)Oc1ccccc1 [sofosbuvir, reference compound]",
    "unitSpec": "%",
    "% Remaining": 99.63
  },
  {
    "compound": "CC(C)(C)SSc1ccccc1CCOP1(=O)OC[C@H]2O[C@@H](n3ccc(=O)[nH]c3=O)[C@](C)(F)[C@@H]2O1 (single isomer, unassigned)",
    "unitSpec": "%",
    "% Remaining": 92.49
  },
  {
    "compound": "COc1ccc2[nH]c([S+]([O-])Cc3ncc(C)c(OC)c3C)nc2c1 (centres unmarked) [Omeprazole, reference compound]",
    "unitSpec": "%",
    "% Remaining": 34.79
  },
  {
    "compound": "CC(C)(C)SSc1ccccc1CCOP1(=O)OC[C@H]2O[C@@H](n3ccc(N)nc3=O)[C@](C)(F)[C@@H]2O1 (single isomer, unassigned) [Compound 9B]",
    "unitSpec": "%",
    "% Remaining": 100.39
  },
  {
    "compound": "CC(C)(C)SSc1ccccc1CCOP1(=O)OC[C@H]2O[C@@H](n3ccc(N)nc3=O)[C@](C)(F)[C@@H]2O1 (single isomer, unassigned) [Compound 9A]",
    "unitSpec": "%",
    "% Remaining": 97.63
  }
]

* * *

Assay: Nucleoside phosphoester stability in simulated gastric fluid
Assay type: in vitro ADME
Settings: simulated gastric fluid pH 1.2, 2 μM, 37° C., 1440 min
Description: Test compounds at 2 μM were incubated at 37° C. with simulated gastric fluid (SGF, 0.2% (w/v) sodium chloride in 0.7% (v/v) hydrochloric acid, deionized water, 0.3% pepsin (w/v), pH 1.2). Duplicate samples were used. […] Samples were analyzed by LC/MS/MS method, and disappearance of test compound was assessed by comparison of peak area ratios of analyte/IS and reported as % test compound remaining at each time point.
quantityName: % Remaining (%)

[
  {
    "molecule": "CC(C)(C)SSc1ccccc1CCOP1(=O)OC[C@H]2O[C@@H](n3ccc(N)nc3=O)[C@](C)(F)[C@@H]2O1 (single isomer, unassigned) [Compound 9A]",
    "reportedResult": 76.22
  },
  {
    "molecule": "CC(C)(C)SSc1ccccc1CCOP1(=O)OC[C@H]2O[C@@H](n3ccc(=O)[nH]c3=O)[C@](C)(F)[C@@H]2O1 (single isomer, unassigned)",
    "reportedResult": 70.36
  },
  {
    "molecule": "COc1ccc2[nH]c([S+]([O-])Cc3ncc(C)c(OC)c3C)nc2c1 (centres unmarked) [Omeprazole, reference compound]",
    "reportedResult": 1.24
  },
  {
    "molecule": "CC(C)(C)SSc1ccccc1CCOP1(=O)OC[C@H]2O[C@@H](n3ccc(N)nc3=O)[C@](C)(F)[C@@H]2O1 (single isomer, unassigned) [Compound 9B]",
    "reportedResult": 21.04
  },
  {
    "molecule": "CC(C)OC(=O)[C@H](C)N[P@](=O)(OC[C@H]1O[C@@H](n2ccc(=O)[nH]c2=O)[C@](C)(F)[C@@H]1O)Oc1ccccc1 [sofosbuvir, reference compound]",
    "reportedResult": 61.36
  }
]
